# ASSAYED TARGET: G12C-mutant human KRAS (amino acid residues 1-188) (Homo sapiens, UniProt P01116, G12C)
# Construct: G12D or G12C-mutant human KRAS (amino acid residues 1-188) with FLAG tag; made in house; host or cells: E. coli
# Sequence (P01116 1-188 isoform P01116-2 G12C): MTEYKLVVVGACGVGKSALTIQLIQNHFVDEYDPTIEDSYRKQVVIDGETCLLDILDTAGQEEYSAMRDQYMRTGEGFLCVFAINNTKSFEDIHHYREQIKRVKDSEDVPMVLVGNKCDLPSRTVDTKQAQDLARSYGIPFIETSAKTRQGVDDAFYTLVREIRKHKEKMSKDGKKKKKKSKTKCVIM
# ASSAY: KRAS Binding Disruption Assay (AlphaScreen; biotinylated KRpep-2d analogue or RAF1-RBD), G12C
# CONDITION INFO: geometric mean, read-out: KRAS GMean IC50 (uM) MUTATION: G12C

COMPOUND	ASSAYED TARGET	IC50
Oc1cc(-c2ccc3c(N4C[C@H]5CC[C@@H](C4)N5)nc(OCC45CCCN4CCC5)nc3c2F)c2c(Cl)cccc2c1	G12C-mutant human KRAS (amino acid residues 1-188) (Homo sapiens, UniProt P01116, G12C)	0.0001 to 10 µM
CC(=O)NCCCN1CCCC1COc1nc(N2C[C@H]3CC[C@@H](C2)N3)c2ccc(-c3cc(O)cc4ccccc34)c(F)c2n1 (mixture of isomers)	G12C-mutant human KRAS (amino acid residues 1-188) (Homo sapiens, UniProt P01116, G12C)	0.0001 to 10 µM
CC(C)(CO)COc1nc(N2C[C@H]3CC[C@@H](C2)N3)c2ccc(-c3cc(O)cc4ccccc34)c(F)c2n1	G12C-mutant human KRAS (amino acid residues 1-188) (Homo sapiens, UniProt P01116, G12C)	0.0001 to 10 µM
CN1CCC[C@H]1COc1nc(N2C[C@H]3CC[C@@H](C2)N3)c2cc(F)c(-c3c[nH]c4ccc(C(F)(F)F)cc34)c(F)c2n1	G12C-mutant human KRAS (amino acid residues 1-188) (Homo sapiens, UniProt P01116, G12C)	100 to 1000 µM
CN1CCC[C@H]1COc1nc(N2C[C@H]3CC[C@@H](C2)N3C(=O)CC2SC(=O)NC2=O)c2cc(F)c(-c3cc(O)cc4ccccc34)c(F)c2n1 (stereo partly shown)	G12C-mutant human KRAS (amino acid residues 1-188) (Homo sapiens, UniProt P01116, G12C)	0.0001 to 10 µM
C=Cc1cc2c(N3C[C@H]4CC[C@@H](C3)N4)nc(OC[C@@H]3CCCN3C)nc2c(F)c1-c1cc(O)cc2ccccc12	G12C-mutant human KRAS (amino acid residues 1-188) (Homo sapiens, UniProt P01116, G12C)	0.0001 to 10 µM
CNC(=O)COc1nc(N2C[C@H]3CC[C@@H](C2)N3)c2ccc(-c3cc(O)cc4ccccc34)c(F)c2n1	G12C-mutant human KRAS (amino acid residues 1-188) (Homo sapiens, UniProt P01116, G12C)	10 to 100 µM
